- Tested on: ACHN
- assay.protocol: NCI tumour cell line growth inhibition, 48 h
Calls of active or inactive are those of the source. No stated cut-off is given here; in the data, active = GI50 up to about 1.1 µM and inactive = higher.
Form entry, call: pick from active, inactive

The examples below pair each entry with its known result.
molecule	assayed.system	group.label
O=c1c2cc([N+](=O)[O-])ccc2n2n1Cc1ccccc1CC2	ACHN	inactive
O=[N+]([O-])c1c(F)c(F)c2c(c1F)Nc1ccccc1S2	ACHN	inactive
Clc1ncc(Cl)c(Cl)n1	ACHN	inactive
C/C(=N\NC(=S)N1CCCCC1)c1cccc(C)n1	ACHN	active
CCCCNC(=S)Nc1nc(C(=O)NNC(=S)NC2CCCCC2)cs1	ACHN	inactive

Ask | Name the outcome recorded for `C[C@@]12[Se]c3ccccc3[C@]1(C)[Se]c1ccccc12` in the assay.
Reply | inactive

Ask | Name the outcome recorded for `O=c1nc(N2CCCCC2)sc2[nH]c3ccccc3c12` in the assay.
Reply | inactive

Ask | Name the outcome recorded for CNC1=Nc2ccccc2C(=O)N2CSCC12 (configuration not stated) in the assay.
Reply | inactive

Ask | Name the outcome recorded for `O=C1CCC2=C(CCC2)N1CCc1ccc2c(c1)OCO2` in the assay.
Reply | inactive

Ask | Name the outcome recorded for O=C(O)c1ccccc1CN1CCCC(C(=O)O)C1 (configuration not stated) in the assay.
Reply | inactive

Ask | Name the outcome recorded for `O=C(O)C1(Cc2ccccc2)Cc2cc3c(cc2C1)CCC3` in the assay.
Reply | inactive

Ask | Name the outcome recorded for `NS(=O)(=O)c1nc(S(=O)(=O)O)c2[nH]cnc2n1` in the assay.
Reply | inactive

----------
Listing of recorded GI50 by entry.
- Test system: M14
- assay.protocol: NCI tumour cell line growth inhibition, 48 h
The source made the active and inactive calls. No stated cut-off is given here; in the data, active = GI50 up to about 1.1 µM and inactive = higher.

Previously resolved entries follow.
compound	assayed.system	measured.value
Cc1ccc2c(c1)C(=O)N1CCC[C@H]1C=N2	M14	16.9 µM (inactive)
CC(C)NC(C)C(C)c1ccccc1 (stereo unspecified)	M14	> 100 µM (inactive)
O=C(Nc1ccccc1)N(CCN(Cc1ccccc1)C(=O)Nc1ccccc1)CCN(Nc1ccccc1)C(=O)Nc1ccccc1	M14	92.9 µM (inactive)

Ask | Kindly indicate its recorded GI50. Item: `CCOC(=O)c1c(C)cc(=O)n2c1[nH]c1ccccc12`
Reply | > 100 µM (inactive)

Ask | Kindly indicate its recorded GI50. Item: `NC(=O)SCC(=O)Nc1ccc2ncccc2c1`
Reply | > 100 µM (inactive)

Ask | Kindly indicate its recorded GI50. Item: O=c1[nH]c(=O)n(C2CC(O)C(CO)O2)cc1C1=NC1 (stereo unspecified)
Reply | > 100 µM (inactive)

----------
- System: UACC-257
- assay.protocol: NCI tumour cell line growth inhibition, 48 h
The source made the active and inactive calls. No stated cut-off is given here; in the data, active = GI50 up to about 1.1 µM and inactive = higher.
parameter.measured: GI50

compound	assayed.system	measured.value
COC(=O)CCC(C)[C@H]1CCC2C3CC[C@@H]4CC5(CC[C@]4(C)C3C[C@H](OC(C)=O)[C@@]21C)OOC1(CCCCC1)OO5 (stereo not given in full)	UACC-257	4.49 µM (inactive)

Ask | Kindly indicate its recorded GI50. Item: `O=C(O)CCc1c2ccc(=O)c(O)c-2oc2c(O)c(O)ccc12`
Reply | > 100 µM (inactive)

Ask | Kindly indicate its recorded GI50. Item: `O=S(=O)(N=S(c1ccccc1)c1ccccc1)c1ccccc1`
Reply | > 100 µM (inactive)

Ask | Kindly indicate its recorded GI50. Item: O=C(NCCC1CNc2ccccc21)OCc1ccccc1 (stereo not given)
Reply | > 100 µM (inactive)

Ask | Kindly indicate its recorded GI50. Item: `COc1cc(C(=O)Oc2c(C(C)=O)sc3c2c(=O)n(-c2ccccc2)c(=S)n3-c2ccccc2)cc(OC)c1OC`
Reply | 28.1 µM (inactive)

Ask | Kindly indicate its recorded GI50. Item: COC(=O)C(Cc1nc2ccc(Cl)cc2nc1O)/C(=N\N)C(=O)Nc1cc(C)c(Cl)cc1S(=O)(=O)O (stereo not given)
Reply | > 100 µM (inactive)

Ask | Kindly indicate its recorded GI50. Item: N#CC12C3C4CC5C6C4C1C6C(O)(C53)N2Cc1ccccc1 (stereo not given)
Reply | > 100 µM (inactive)

Ask | Kindly indicate its recorded GI50. Item: `COC(=O)CCC(=O)c1ccc2c(c1)CCC2`
Reply | > 100 µM (inactive)

Ask | Kindly indicate its recorded GI50. Item: COc1cc(C(C)c2cc3c(cc2OCCN)OCO3)cc(OC)c1OC (stereo not given)
Reply | 6.7 µM (inactive)

Ask | Kindly indicate its recorded GI50. Item: O=C1CC2CC(CC3(CO3)C2)C1F (stereo not given)
Reply | > 100 µM (inactive)

----------
- Tested on: RXF 393
- assay.protocol: NCI tumour cell line growth inhibition, 48 h
Active and inactive are the calls of the source. Rule as the data show it: active = GI50 up to about 1.1 µM and inactive = higher.
Form entry, call: pick from TRUE for active, FALSE for inactive

The examples below pair each entry with its known result.
compound	group.label
O=C1Nc2ccccc2[C@]12C[C@H]2c1ccccn1	FALSE
COC(=O)CCC(=O)NC1=C(Nc2ccc(OC)cc2)C(=O)c2ccccc2C1=O	FALSE
CC(C)CC(NC(=O)C(C)(CI)Cc1ccccc1)C(=O)Nc1ccccc1 (stereo not given)	FALSE
O=C(O)C1(Cc2ccccc2)Cc2cc3c(cc2C1)CCC3	FALSE

Ask | Name the outcome recorded for `Cc1ccc(S(=O)(=O)OC2CCN(C)CC2)cc1` in the assay.
Reply | FALSE

Ask | Name the outcome recorded for `O=C1C[C@@H]2[C@@H](C=CC23CCCC3)N1O` in the assay.
Reply | FALSE

Ask | Name the outcome recorded for CC(Nc1ccc(Cl)cc1)c1ccncc1 (stereo not given) in the assay.
Reply | FALSE

----------
- System: CCRF-CEM
- assay.protocol: NCI tumour cell line growth inhibition, 48 h
Calls of active or inactive are those of the source. Cut-off read from the data, not from the text of the source: active = GI50 up to about 1.1 µM and inactive = higher.
parameter.measured: GI50

compound	measured.value
CC(C)(C)c1ccccc1N1C(=O)c2ccc3c4c(ccc(c24)C1=O)N(c1ccccc1C(C)(C)C)C3=O	> 100 µM (inactive)
CSC1=C(C#N)C(=O)N(c2ccc(Cl)cc2)C(=O)C1C#N (centres undefined)	44.9 µM (inactive)
C=CCN1C(=O)C(=O)N(CC=C)C(=O)C1=O	> 100 µM (inactive)
CC1=NN(c2nc(N)nc(/C(C#N)=C\c3csc([N+](=O)[O-])c3)n2)C(C)(C)C1	2.23 µM (inactive)
C/C(=N\NC(=S)NC1CCCC1)c1ccccn1	< 0.01 µM (active)
COc1ccc(OC)c(-c2nc(O)c3ccccc3n2)c1	> 100 µM (inactive)
CCCCNC(=S)Nc1nc(C(=O)NNC(=S)NC2CCCCC2)cs1	67.6 µM (inactive)
C1CSCCSCCCSC2CCCCC2SC1 (centres undefined)	> 100 µM (inactive)
O=c1c2cc([N+](=O)[O-])ccc2n2n1Cc1ccccc1CC2	> 100 µM (inactive)
CSc1cnn(CCC#N)c(=O)n1	31 µM (inactive)

Ask | Kindly indicate its recorded GI50. Item: `O=C(O)/C=C/c1ccc2c(c1)CC1(Cc3ccccc3C1)C2`
Reply | 91.2 µM (inactive)

Ask | Kindly indicate its recorded GI50. Item: `Cc1ccc2c(=O)c(-c3n[nH]c(=S)s3)c[nH]c2n1`
Reply | > 100 µM (inactive)

Ask | Kindly indicate its recorded GI50. Item: COC(c1ccsc1)C(C#N)(C#N)/N=C/c1ccsc1 (centres undefined)
Reply | 5.96 µM (inactive)

Ask | Kindly indicate its recorded GI50. Item: `OCCSCC/C(=N\N=C(/CCSCCO)c1ccccc1)c1ccccc1`
Reply | 44.9 µM (inactive)

Ask | Kindly indicate its recorded GI50. Item: CC(C)(C)OC(=O)NC1CC2(C=C(Br)C(=O)C(Br)=C2)OC1=O (centres undefined)
Reply | 0.165 µM (active)

Ask | Kindly indicate its recorded GI50. Item: OC(CCN1CCN(CCOC(c2ccccc2)c2ccccc2)CC1)c1ccc(Br)cc1 (centres undefined)
Reply | 12.7 µM (inactive)

Ask | Kindly indicate its recorded GI50. Item: `C/C(=N\NC(N)=S)c1ccc(C)cc1C`
Reply | > 100 µM (inactive)

Ask | Kindly indicate its recorded GI50. Item: `O=C(O)/C=C/c1c2ccc(=O)c(O)c-2oc2c(O)c(O)ccc12`
Reply | 9.59 µM (inactive)

Ask | Kindly indicate its recorded GI50. Item: `COc1ccc2c(c1)Cc1c-2[nH]c2cc3c(cc2c1=O)OCO3`
Reply | 4.33 µM (inactive)

Ask | Kindly indicate its recorded GI50. Item: `CC(C)C(=O)/C=C/c1ccc(Cl)cc1Cl`
Reply | 5.09 µM (inactive)

----------
- System: OVCAR-8
- assay.protocol: NCI tumour cell line growth inhibition, 48 h
The source made the active and inactive calls. Rule as the data show it: active = GI50 up to about 1.1 µM and inactive = higher.
Form entry, call: pick from active, inactive

The examples below pair each entry with its known result.
molecule	group.label
CCCCCCCCCCCC(=O)CC(=O)c1c(O)cccc1O	inactive
O=C(Nc1nc2ncn(CCO)c2c(=S)[nH]1)c1ccccc1	inactive
Nc1ccn(CCO)c(=O)n1	inactive
O=C(CCc1cccc(O)c1)NCCc1cccc(O)c1	inactive
O=c1[nH]c2nc3ccccc3c(=O)n2/c1=C/c1ccccc1	inactive

Ask | Name the outcome recorded for O=C(O)c1ccccc1CN1CCCC(C(=O)O)C1 (stereo not given) in the assay.
Reply | inactive

Ask | Name the outcome recorded for CC(O)CCCOC(c1ccccc1)(c1ccccc1)c1ccccc1 (stereo not given) in the assay.
Reply | inactive

Ask | Name the outcome recorded for `COc1cc2c(c(OC)c1OC)-c1ccc(SC)c(=O)cc1[C@@H](NCc1ccc(F)cc1)CC2` in the assay.
Reply | active

Ask | Name the outcome recorded for `O=C1C=C(O)C(=Cc2c(O)cc(O)cc2O)C(O)=C1` in the assay.
Reply | inactive

Ask | Name the outcome recorded for `CC(=O)C1=C(C)NC(=C(C#N)C#N)C(C#N)=C1` in the assay.
Reply | inactive

Ask | Name the outcome recorded for C/C(=C1/CCCC2(N=NCC2c2ccccc2)C1=O)c1ccccc1 (stereo not given) in the assay.
Reply | inactive

Ask | Name the outcome recorded for `CCOC(=O)C#Cc1cccc(C#CC(=O)OCC)c1` in the assay.
Reply | inactive
